Experiment: Solubility study in aqueous buffers and organic solvents
Format: physicochemical
Conditions: organic solvent or mixture, thermodynamic from solid; Methanol, n = 3; read-out: Relative solubility in methanol
OBSERVATION_TYPE: solubility (µg/mL)
Provide the reading as a plain figure in µg/mL.

Asked: # return recorded solubility for entry CC[C@H]1OC(=O)[C@H](C)[C@@H](OC2C[C@@](C)(OC)[C@@H](O)[C@H](C)O2)[C@H](C)[C@@H](OC2O[C@H](C)C[C@H](N(C)C)[C@H]2O)[C@](C)(O)C[C@@H](C)/C(=N\NC(=O)C23CC4CC(CC(C4)C2)C3)[C@H](C)[C@@H](O)[C@]1(C)O (some centres unmarked) [AD-EM, adamantane-modified erythromycin]
Given back: 7300

###

Assay: Solubility study in aqueous buffers and organic solvents
Assay type: physicochemical
Conditions: several polar solvents, comparable to EM; read-out: Solubility in several polar solvents
Experimental: The solubility of AD-EM compared to EM was evaluated in several different aqueous buffers (i.e., PBS, Water, Acetate pH 5.0) and polar solvents (i.e., methanol, ethyl acetate, acetone). The solubility study presented in Table 1 further verifies that modified AD-EM is more hydrophobic than EM due to the addition of the hydrophobic AD group. […]
OBSERVATION_TYPE: solubility

Asked: # return recorded solubility for entry CC[C@H]1OC(=O)[C@H](C)[C@@H](OC2C[C@@](C)(OC)[C@@H](O)[C@H](C)O2)[C@H](C)[C@@H](OC2O[C@H](C)C[C@H](N(C)C)[C@H]2O)[C@](C)(O)C[C@@H](C)/C(=N\NC(=O)C23CC4CC(CC(C4)C2)C3)[C@H](C)[C@@H](O)[C@]1(C)O (stereo partly shown)
Given back: ~40 mg/mL

###

Assay: Solubility study in aqueous buffers and organic solvents
Assay type: physicochemical
Conditions: organic solvent or mixture, thermodynamic from solid; Acetone, n = 3; read-out: Relative solubility in acetone
Method: The solubility of AD-EM compared to EM was evaluated in several different aqueous buffers (i.e., PBS, Water, Acetate pH 5.0) and polar solvents (i.e., methanol, ethyl acetate, acetone). The solubility study presented in Table 1 further verifies that modified AD-EM is more hydrophobic than EM due to the addition of the hydrophobic AD group. […]
OBSERVATION_TYPE: solubility (mg/mL)
Provide the reading as a plain figure in mg/mL.

Asked: # return recorded solubility for entry CC[C@H]1OC(=O)[C@H](C)[C@@H](OC2C[C@@](C)(OC)[C@@H](O)[C@H](C)O2)[C@H](C)[C@@H](OC2O[C@H](C)C[C@H](N(C)C)[C@H]2O)[C@](C)(O)C[C@@H](C)/C(=N\NC(=O)C23CC4CC(CC(C4)C2)C3)[C@H](C)[C@@H](O)[C@]1(C)O (some centres unmarked)
Given back: 37.5

###

Assay: Solubility study in aqueous buffers and organic solvents
Format: physicochemical
Details: aqueous buffer, thermodynamic from solid; Phosphate Buffered Saline (PBS), pH 7.4, n = 3; read-out: Relative solubility in PBS
Experimental: The solubility of AD-EM compared to EM was evaluated in several different aqueous buffers (i.e., PBS, Water, Acetate pH 5.0) and polar solvents (i.e., methanol, ethyl acetate, acetone). The solubility study presented in Table 1 further verifies that modified AD-EM is more hydrophobic than EM due to the addition of the hydrophobic AD group. […]
Recorded solubility, one value per entry.

INSERT INTO results (compound, test_result) VALUES
  ('CC[C@H]1OC(=O)[C@H](C)[C@@H](O[C@H]2C[C@@](C)(OC)[C@@H](O)[C@H](C)O2)[C@H](C)[C@@H](O[C@@H]2O[C@H](C)C[C@H](N(C)C)[C@H]2O)[C@](C)(O)C[C@@H](C)C(=O)[C@H](C)[C@@H](O)[C@]1(C)O [EM, Erythromycin]', '1600 µg/mL');

Asked: # return recorded solubility for entry CC[C@H]1OC(=O)[C@H](C)[C@@H](OC2C[C@@](C)(OC)[C@@H](O)[C@H](C)O2)[C@H](C)[C@@H](OC2O[C@H](C)C[C@H](N(C)C)[C@H]2O)[C@](C)(O)C[C@@H](C)/C(=N\NC(=O)C23CC4CC(CC(C4)C2)C3)[C@H](C)[C@@H](O)[C@]1(C)O (some centres unmarked) [AD-EM, adamantane-modified erythromycin]
Given back: 340 µg/mL
